These measurements were taken from patent US11492374B2.

Assay system: recombinant human mu opioid receptor (MOR) (Homo sapiens (Human), UniProt P35372)
Assay procedure: Opioid receptor radioligand binding assay, MOR ([3H]DAMGO)
Condition context: membranes of HEK293 cells expressing recombinant human MOR; 0.5 nM [3H]DAMGO
Readout kind: IC50 (µM)
Answers are plain numbers, in µM.

**Query** Given the compound `CC(C)C[C@@H](NC(=O)[C@@H](Cc1ccccc1)NC(=O)[C@H](N)[C@H](C)c1ccccc1)C(=O)N[C@H](CCCCN)C(=O)N1CCC(N)(C(=O)O)CC1` , write its reported IC50.
**Result** 9.81

====

Assay system: recombinant human kappa opioid receptor (KOR) (Homo sapiens (Human), UniProt P41145)
Readout kind: IC50 (pM)
Numbers only, in pM.

**Query** Given the compound `CC(C)C[C@@H](NC(=O)[C@@H](Cc1ccccc1)NC(=O)[C@H](N)[C@H](C)c1ccccc1)C(=O)N[C@H](CCCCN)C(=O)N1CCC(N)(C(=O)O)CC1` , write its reported IC50.
**Result** 252
